- Tested on: EKVX NSCLC
- protocol text: NCI tumour cell line growth inhibition, 48 h
parameter measured: GI50

State its GI50: [C-]#[O+].[Cl][Sn]([Cl])[Cl].[Cl][Sn]([Cl])[Cl].[Pt].c1ccc([PH+](c2ccccc2)c2ccccc2)cc1.c1ccc([PH+](c2ccccc2)c2ccccc2)cc1
28 µM

State its GI50: CC(=O)Nc1ccc(-c2c3nc(c(-c4cc5ccccc5[n+](C)c4)c4ccc([nH]4)c(-c4ccc(NC(C)=O)cc4)c4nc(c(-c5cc6ccccc6[n+](C)c5)c5ccc2[nH]5)C=C4)C=C3)cc1
9.09 µM

State its GI50: COc1cc(/C=N/Nc2ncnc3c2cnn3C(C)C)ccc1O
11.6 µM

State its GI50: O=C(Cn1c(=O)c(-c2ccccc2)nc2ccccc21)c1ccc(Cl)cc1
94.2 µM

State its GI50: Cc1oc2nc[nH]c(=O)c2c1C(=O)/C=C/c1ccc(Cl)cc1
2.37 µM

State its GI50: CCN(CC)C(=O)CC1=C(C)/C(=C/c2[nH]c(-c3ccc[nH]3)cc2OC)N=C1C
0.452 µM

State its GI50: COc1cc2c(c(OC)c1OC)C(=O)CC(c1cccc(NC(=O)c3ccc(Br)cc3)c1)O2 (stereo not drawn)
2.5 µM

State its GI50: O=[N+]([O-])c1cc([N+](=O)[O-])c(Cl)c(Cl)c1Cl
2.74 µM

====

I'd appreciate it if you could supply TGI values for the items below.
- Tested on: OVCAR-5 ovarian
- protocol text: NCI tumour cell line growth inhibition, 48 h
Record the value in µM, omitting the unit from your answer.

State its TGI: Cc1nc(Cl)c2sc(=S)n(-c3ccc(F)cc3)c2n1
24.1

State its TGI: Cc1oc2nc[nH]c(=O)c2c1C(=O)/C=C/c1ccc(Cl)cc1
12

State its TGI: CCCCN(CCCC)c1ccc(C(=N)c2ccc(N(C)C)cc2)cc1
2.86

====

- Tested on: K-562 leukemia
- protocol text: NCI tumour cell line growth inhibition, 48 h; in the data active = GI50 below about 0.43 µM; inactive = the rest
Permitted responses: active, inactive

Which outcome did this test record for the compound O=S(=O)(Nc1cc(Br)c(O)c2ccccc12)c1ccc(F)cc1 ?
inactive

Which outcome did this test record for the compound COc1ccc(C[n+]2c3ccccc3n3c4ccc(N)cc4ccc32)c(OC)c1OC ?
inactive

Which outcome did this test record for the compound Cc1oc2nc[nH]c(=O)c2c1C(=O)/C=C/c1ccc(Cl)cc1 ?
inactive

Which outcome did this test record for the compound Cc1cc(Cc2cc(C)c(O)c(C)c2)cc(C)c1O ?
inactive

Which outcome did this test record for the compound COc1cccc(C(=O)Nc2ccc(CN3CCc4nc5cc(OC)c(OC)cc5cc43)cc2)c1 ?
inactive

Which outcome did this test record for the compound Cc1csc(/C=N/NC(=O)c2nnn(-c3ccnc4c(C(F)(F)F)cccc34)c2C)c1 ?
inactive

Which outcome did this test record for the compound COc1cc(-c2n/c(=C\c3c(O)[nH]c4ccc(Cl)cc34)cc3c2=Nc2ccccc2-3)cc(OC)c1OC ?
inactive

Which outcome did this test record for the compound CO[C@H]1[C@@H](O)[C@@H](C)O[C@@H](O[C@H]2CC[C@@]3(C)[C@H](CC[C@@H]4[C@@H]3CC[C@]3(C)[C@@H](C5=CC(=O)OC5)CC[C@]43O)C2)[C@@H]1O ?
active

====

- System: A498 renal
- protocol text: NCI tumour cell line growth inhibition, 48 h
parameter measured: TGI (µM)
Record the value in µM, omitting the unit from your answer.

State its TGI: COc1cc2c(c(OC)c1OC)C(=O)CC(c1cccc(NC(=O)c3ccc(Br)cc3)c1)O2 (stereo not given)
8.15

State its TGI: CC(C)(N)CO[C@H]1C[C@H]2CC[C@@]1(C)C2(C)C
82.1

====

- System: HCC-2998 colon
- protocol text: NCI tumour cell line growth inhibition, 48 h
parameter measured: TGI

State its TGI: CC12CCC([C@H](N3CCOCC3)/C1=N\OCCN1CCCC1)C2(C)C (stereo not given in full)
> 100 µM

State its TGI: C=CCn1c(=O)c2cnc(Nc3ccc(N4CCN(C)CC4)cc3)nc2n1-c1ccc2c(n1)[C@@](O)(CC)CC2
3.82 µM

State its TGI: COC1(C(C)(C)C)C=C(C(C)(C)C)P(=O)(O)O1 (stereo not given)
> 100 µM

State its TGI: COC(=O)[C@H]1[C@H]2C[C@@H]3c4[nH]c5cc(OC)ccc5c4CCN3C[C@H]2C[C@@H](OC(=O)c2cc(OC)c(OC)c(OC)c2)[C@@H]1OC
47.1 µM

State its TGI: COC(=O)Nc1nc2ccc(Oc3ccc4nc(NC(=O)OC)[nH]c4c3)cc2[nH]1
> 22.7 µM

State its TGI: CC1=CC[C@@H]2C(C)(C)C(=O)CC[C@@]2(C)[C@@H]1COc1ccc2ccc(=O)oc2c1
> 100 µM

State its TGI: Clc1cc(OCc2nn3c(Cc4ccccc4)nnc3s2)ccc1OCc1nn2c(Cc3ccccc3)nnc2s1
> 100 µM

State its TGI: Cc1nc2ccccc2c(=O)n1-c1n[nH]c2ccccc12
> 100 µM

State its TGI: Cc1c(C(=O)CC(=O)C(=O)Nc2c(C(C)C)cccc2C(C)C)[n+](=O)c2ccccc2n1[O-]
16.6 µM

State its TGI: C[C@]12CCC3c4ccc(O)cc4CC[C@H]3C1CC(=O)N(N)C2=O (stereo not given in full)
> 100 µM

State its TGI: O=C(O)CN=C(C(=NCC(=O)O)c1ccccc1)c1ccccc1
> 100 µM

State its TGI: Oc1c(C(Nc2cccc3ccccc23)c2ccccc2)ccc2cccnc12 (stereo not given)
> 100 µM

State its TGI: CO[C@H]1O[C@@H]2CO[C@@H](c3ccccc3)O[C@H]2[C@@H]2CC=CCC[C@]12O
51.7 µM

State its TGI: Cn1cc(C2=C(c3c4n(c5ccccc35)CCCC4)C(=O)NC2=O)c2ccccc21
> 25 µM

State its TGI: CC(C)(N)CO[C@H]1C[C@H]2CC[C@@]1(C)C2(C)C
5.23 µM

State its TGI: CC(C)N(C(=O)C12C3C4C5C3C1(C(=O)N(C(C)C)C(C)C)C5(C#N)C42)C(C)C (stereo not given)
> 100 µM

State its TGI: Cc1oc2nc[nH]c(=O)c2c1C(=O)/C=C/c1ccc(Cl)cc1
3.65 µM

State its TGI: CC1(C)CC(=O)/C(=C/C2CCNC2=S)C(=O)N1 (stereo not given)
> 100 µM

State its TGI: CCCCSN1C(=O)c2ccccc2C1=S
> 100 µM

State its TGI: O=C(CC(=O)c1ccc([N+](=O)[O-])cc1)C(=O)Nc1nccs1
> 100 µM

State its TGI: O=S1CSCS1 (stereo not given)
> 100 µM

State its TGI: [C-]#[O+].[Cl][Sn]([Cl])[Cl].[Cl][Sn]([Cl])[Cl].[Pt].c1ccc([PH+](c2ccccc2)c2ccccc2)cc1.c1ccc([PH+](c2ccccc2)c2ccccc2)cc1
> 100 µM

State its TGI: N#CCCN(CCC#N)C(=O)c1cccc(C(=O)N(CCC#N)CCC#N)c1
> 100 µM

State its TGI: COc1ccc(C2=Nc3ccccc3SC(C)C2)cc1 (stereo not given)
> 100 µM

State its TGI: O=C1c2cccc3cccc(c23)C(=O)N1CCCNCCCCNCCCN1C(=O)c2cccc3cccc(c23)C1=O
0.568 µM

State its TGI: CN(C)/C(N)=N/C(N)=Nc1cccc(Cl)c1
> 100 µM

State its TGI: c1cc(-c2csc(-c3ccsc3)c2)cs1
> 100 µM

State its TGI: COC(=O)CCC1(C)C2CCC1(C)/C(=N/O)C2 (stereo not given)
> 100 µM

State its TGI: CC1=CCC2(C#N)CCC1C2O (stereo not given)
> 100 µM

State its TGI: O=C(/C=C1\C(=O)N(Cc2ccc([N+](=O)[O-])cc2)c2ccccc21)c1ccc(OCCN2CCCCC2)cc1
2.93 µM

State its TGI: COc1ccc(-c2cc(-c3ccccc3)n(C3OCC(OC(C)=O)C(OC(C)=O)C3OC(C)=O)c(=S)c2C#N)cc1 (stereo not given)
> 100 µM

State its TGI: COc1cc(/C=N/Nc2ncnc3c2cnn3C(C)C)ccc1O
> 25 µM

State its TGI: CN1CCC(CNC(=O)CCCCCCCCC(=O)NCC2(c3ccccc3)CCN(C)CC2)(c2ccccc2)CC1
> 100 µM

State its TGI: NC(=O)c1cc(-c2ccc(-n3ccnc3)cc2)n[nH]c1=O
> 100 µM

State its TGI: CC(C)(C)[Si](C)(C)OCC1CCC(n2cnc3c(=O)[nH]cnc32)O1 (stereo not given)
> 100 µM

State its TGI: CC1=C(C)C(=O)C2=C(OCCCO2)C1=O
> 100 µM

State its TGI: COc1ccc2c(c1)[C@]1(C[C@H]1c1ccc3c(/C=C/c4ccc(CN5C[C@@H](C)O[C@@H](C)C5)cc4)n[nH]c3c1)C(=O)N2
> 59.7 µM

State its TGI: C=C[C@@]1(C)CCC2(O)C(CCC3C2(C)CCC[C@@]3(C)COC(=O)CC(=O)OC)C1 (stereo not given in full)
> 100 µM

State its TGI: CC1=NN(c2nc(N)nc(/C(C#N)=C/c3ccc([N+](=O)[O-])o3)n2)C(C)(C)C1
39.4 µM

State its TGI: CCOC(=O)C1=C(C)NC2SC(=O)/C(=C\c3ccccc3Cl)N2C1c1ccccc1 (stereo not given)
> 100 µM

Numbers sourced from PubChem BioAssay (NCI).
